- System: MDA-MB-435
- protocol_summary: NCI tumour cell line growth inhibition, 48 h
measurement_type: TGI

>>> measured("Cc1cc(O)c(C=NC(=S)c2ccncc2)c(=O)o1")
"> 100 µM"
>>> measured("Cc1ccc(C(=O)N/N=C(\\N=Nc2cccc(C)c2)c2ccc(N(CCC#N)CCC#N)cc2C)cc1")
"> 100 µM"
>>> measured("O=C(Nc1ccccc1C(=O)N/N=C(\\c1ccccc1)c1ccccn1)c1ccccc1")
"> 100 µM"
>>> measured("CCOC(=O)C1C(c2ccc3c(c2)OCO3)c2c([nH][nH]c2=O)CC1(O)OCC (configuration not stated)")
"> 100 µM"
>>> measured("CCOc1ccc(C2Oc3c(cccc3OC)C=C2[N+](=O)[O-])cc1OCC (configuration not stated)")
"16.7 µM"
>>> measured("CCOP(=O)(OCC)C(C)(CC)NC1=NC(C(F)(F)F)(C(F)(F)F)NC(=O)N1 (configuration not stated)")
"> 100 µM"
>>> measured("N#CC(NCCc1ccccc1)c1ccc(C(C#N)NCCc2ccccc2)cc1 (configuration not stated)")
"> 100 µM"
>>> measured("COc1ccc2c(c1)C(=O)C1(C2)[C@H](c2ccccc2)C2C(=O)c3cc(OC)ccc3C2[C@H]1c1ccccc1 (some centres not stated)")
"> 100 µM"
>>> measured("COc1cc2c3c(n(CCCN)c(=O)c2cc1OC)-c1ccc(N(C)C)cc1C3=O")
"46.3 µM"
>>> measured("Oc1ccc2c(c1)OCC1(O)Cc3cc(O)c(O)cc3C21 (configuration not stated)")
"28.1 µM"
>>> measured("CC(C)C(=O)NCC[C@@H](CNC(=O)OC(C)(C)C)NC(=O)OC(C)(C)C")
"> 100 µM"
>>> measured("C#CCNCCCN1C(=O)c2ccc3c4c(ccc(c24)C1=O)C(=O)N(CCCNCC#C)C3=O")
"0.404 µM"
>>> measured("C=C1CC[C@]2(C)[C@H](CC[C@@]34C[C@@H](CC[C@H]32)[C@@H](C(=O)O)C4)C1(C)C")
"> 12.5 µM"
>>> measured("CN(C)c1nc2n(CCO)ccnc-2c(=O)n1")
"> 100 µM"
>>> measured("CN1CCN(Cc2nc3cccc4c3c([n+]2[O-])-c2ccccc2-4)CC1")
"34 µM"
>>> measured("CCOC(=O)/C=C/C1OC(C)(C)OC1/C=C/C(=O)OCC (configuration not stated)")
"> 100 µM"
>>> measured("CC(CO)CCC(O)C(C)(O)C1CCC2(O)C3=CC(=O)C4CC(O)C(O)CC4(C)C3CCC12C (configuration not stated)")
"> 100 µM"
>>> measured("COc1ccc2nc3c(n2c1)C(=O)C(=O)c1ccccc1-3")
"0.353 µM"
>>> measured("CCCCCC[n+]1noc(N)c1-c1ccc(-c2c(N)on[n+]2CCCCCC)cc1")
"3.23 µg/mL"
>>> measured("COc1cc2c(cc1OCCCCCN1CCN(CCCCCOc3cc4c(cc3OC)C(=O)C3CCC[C@H]3C=N4)CC1)N=C[C@@H]1CCCC1C2=O (some centres not stated)")
"39.9 µM"
>>> measured("COc1ccccc1CNCCCCCNCCCCCCCCCCNCCCCCNCc1ccccc1OC")
"> 100 µM"
>>> measured("CNC(=O)c1ccc(C(=O)NCCCCCN(O)C(=O)CCC(=O)NCCCCCN(O)C(=O)CCC(=O)NCCCCCN(O)C(C)=O)c(O)c1O")
"> 100 µM"
